Origin of measurements: patent US20030032807A1

- experimentSummary: logP determination by HPLC on reversed-phase column (C 18), EEC Directive 79/831 Annex V.A8
- Assay type: physicochemical
- conditionParameters: reversed-phase HPLC column (C 18); at pH=2.3; acid range eluents 0.1% aqueous phosphoric acid/acetonitrile; 43° C.
chromatographic logP reference
assayEndpoint: chromatographic logP

compound="Nn1c(C(F)(F)F)cc(=O)n(-c2ccc(Br)cc2F)c1=O [Example 1]" assayendpoint="chromatographic logP" recordedresult=2.41
compound="CCS(=O)(=O)N(C(=O)c1ccccc1)c1cc(-n2c(=O)cc(C(F)(F)F)n(N)c2=O)c(F)cc1C#N [Example 8]" assayendpoint="chromatographic logP" recordedresult=2.82
